system: AML12 cells; test: in vitro; format: cell-based, mouse; conditions: AML12, 24 h incubation, WST-1, free compounds in 1% DMSO; read-out: IC50 (cytotoxicity)
pIC50: −log10 of the molar value.
Measured metric: pIC50

1) CCC(=O)Oc1ccc([N+](=O)[O-])cc1[N+](=O)[O-] ... ~3.70

Query compound follows.
Look at this compound and give its reported pIC50. CCCCCC(=O)Oc1ccc([N+](=O)[O-])cc1[N+](=O)[O-]
~3.70
